Biological target: cDNA-expressed human hepatic CYP3A4 (Homo sapiens (Human), UniProt P08684)
Sequence (P08684 whole entry): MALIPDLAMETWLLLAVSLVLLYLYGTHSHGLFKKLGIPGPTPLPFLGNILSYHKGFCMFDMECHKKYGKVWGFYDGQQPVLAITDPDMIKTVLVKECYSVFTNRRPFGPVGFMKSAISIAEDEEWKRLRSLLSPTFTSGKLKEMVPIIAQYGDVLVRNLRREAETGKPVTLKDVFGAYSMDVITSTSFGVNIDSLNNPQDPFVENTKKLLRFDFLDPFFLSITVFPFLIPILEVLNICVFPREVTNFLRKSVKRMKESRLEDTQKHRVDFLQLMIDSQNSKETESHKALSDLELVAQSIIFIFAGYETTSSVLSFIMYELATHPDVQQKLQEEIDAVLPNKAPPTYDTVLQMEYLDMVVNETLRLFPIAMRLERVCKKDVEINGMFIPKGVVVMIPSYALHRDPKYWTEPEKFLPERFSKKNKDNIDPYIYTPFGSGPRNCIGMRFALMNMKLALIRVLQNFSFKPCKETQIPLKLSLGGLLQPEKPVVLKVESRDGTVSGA
Assay: Measurement of CYP (IC50 of P450 CYP3A4), BFC substrate
Assay type: in vitro ADME
Conditions: 20 minutes
Measure: IC50 (µM)

I. C=CCN1CC(=O)N2[C@@H](Cc3ccc(O)cc3)C(=O)N(Cc3cccc4c(C(=O)NN5CCN(c6ccccn6)CC5)cn(C)c34)C[C@@H]2N1C(=O)NCc1ccccc1
II. C=CCN1CC(=O)N2[C@@H](Cc3ccc(O)cc3)C(=O)N(Cc3cccc4c(-c5ccc(NC(=O)N6CCN(S(C)(=O)=O)CC6)nc5)cn(C)c34)C[C@@H]2N1C(=O)NCc1ccccc1
Query: Which one would you say has the larger IC50 value: I , or II ? Please indicate the selected item by its label.
Result: II
(II: 6.4 µM, I: 2.48 µM)

P. C=CCN1CC(=O)N2[C@@H](Cc3ccc(O)cc3)C(=O)N(Cc3cccc4c(C(=O)N5CCN(S(C)(=O)=O)CC5)cn(C)c34)C[C@@H]2N1C(=O)NCc1ccccc1
Q. C=CCN1CC(=O)N2[C@@H](Cc3ccc(O)cc3)C(=O)N(Cc3cccc4c(C(=O)Nc5ccc(N6CC(N7CCC(OC)CC7)C6)nc5)cn(C)c34)C[C@@H]2N1C(=O)NCc1ccccc1
Query: Pick one, P or Q : lowest reported IC50. Please indicate the selected item by its label.
Result: Q
(Q: 2.56 µM, P: 11.2 µM)
